Some variants, each annotated with its measured abundance fitness.
B1: GA-binding protein alpha chain, residues 172 to 250; numbered along this chain, Q06546 (parent)
chain: GYRKEQERLGIPYDPIQWSTDQVLHWVVWVMKEFSMTDIDLTTLNISGRELCSLNQEDFFQRVPRGEILWSHLELLRKY

variants of: B1; test: abundance fitness (aPCA) (normalised: wild type 0, dead -1); higher = more abundant; growth selection in yeast, the domain comes from the species named; conditions: Homo sapiens
Give your answer as a number; write no unit.

// below: answered variants
1. R3N -0.373
2. E33I -0.767
3. P64N -0.177
4. L9A -0.08
5. Q56L -0.291
6. Y13L -0.014
7. D38Q -0.099
8. Y79F 0.062

Documented abundance fitness of E74D : -0.023

Documented abundance fitness of Q17A : -0.056

Documented abundance fitness of Q22H : -0.052

Documented abundance fitness of I68Y : -0.037

Documented abundance fitness of L69W : -0.432

Documented abundance fitness of K78Q : -0.059

Documented abundance fitness of E7W : -0.288

Documented abundance fitness of L76R : -0.677
